# experiment-summary: Thiosulfinate half-life in aqueous ethanol garlic extract solutions by quantitative reverse phase HPLC
# Assay type: physicochemical
# condition-label: buffer, 25% EtOH, 40° C., initial allicin 400 ppm; mean (SD), n=3
recorded-endpoint: half-life (h)
The figure you give is taken to be in h; do not add the unit.

Record request: half-life value, item C=CC[S+]([O-])SC=CC (stereo not shown)
15.3

* * *

# experiment-summary: Thiosulfinate half-life in aqueous ethanol garlic extract solutions by quantitative reverse phase HPLC
# Type: physicochemical
# condition-label: buffer, 50% EtOH, 20° C., initial allicin 400 ppm; mean (SD), n=3
# Description: The solutions were prepared from a single stock aqueous garlic extract solution that was diluted with the appropriate volume of ethanol to produce the 25%, 50% and 75% ethanol garlic aqueous extract solutions. […] The decomposition profiles of MeS(O)SAll and AllS(O)SMe (the MA-AM mixture collectively referred to as Analogue-1), AllS(O)SAll (Allicin, Analogue-2) and AllS(O)SPn-(E,Z) (Analogue-3) thiosulfinates were then determined by quantitative reverse phase HPLC. […]
recorded-endpoint: half-life (h)
Return type: number; implicit unit h.

Give its half-life value. Item: C=CC[S+]([O-])SC=CC (stereo not shown)
203

* * *

# experiment-summary: Thiosulfinate half-life in aqueous ethanol garlic extract solutions by quantitative reverse phase HPLC
# Format: physicochemical
# condition-label: buffer, 25% EtOH, 20° C., initial allicin 400 ppm; mean (SD), n=3
recorded-endpoint: half-life

Given C=CC[S+]([O-])SC=CC (stereo not shown) , state its recorded half-life.
134 h

* * *

# experiment-summary: Thiosulfinate half-life in aqueous ethanol garlic extract solutions by quantitative reverse phase HPLC
# Type: physicochemical
# condition-label: buffer, 50% EtOH, 40° C., initial allicin 400 ppm; mean (SD), n=3
recorded-endpoint: half-life (h)
Expressed in h, but write only the number.

Give the measured half-life of C=CC[S+]([O-])SC=CC (stereo not shown) .
17.3

* * *

# experiment-summary: Thiosulfinate half-life in aqueous ethanol garlic extract solutions by quantitative reverse phase HPLC
# Type: physicochemical
# condition-label: buffer, 75% EtOH, 20° C., initial allicin 400 ppm; mean (SD), n=3
recorded-endpoint: half-life (h)
// units = h; emit number, no label

Quick one: half-life of C=CC[S+]([O-])SC=CC (stereo not shown) ?
161

* * *

# experiment-summary: Thiosulfinate half-life in aqueous ethanol garlic extract solutions by quantitative reverse phase HPLC
# Format: physicochemical
# condition-label: buffer, 50% EtOH, 35° C., initial allicin 400 ppm; mean (SD), n=3
recorded-endpoint: half-life (h)
Write it as a number; the unit h goes unstated.

Quick check: half-life of C=CC[S+]([O-])SC=CC (stereo not shown) ?
28.8

* * *

# experiment-summary: Thiosulfinate half-life in aqueous ethanol garlic extract solutions by quantitative reverse phase HPLC
# Format: physicochemical
# condition-label: buffer, 25% EtOH, 35° C., initial allicin 400 ppm; mean (SD), n=3
recorded-endpoint: half-life

Item under review: C=CC[S+]([O-])SC=CC (stereo not shown) . Reported half-life?
25 h

* * *

# experiment-summary: Thiosulfinate half-life in 100% aqueous garlic extract solution by quantitative HPLC
# Format: physicochemical
# condition-label: buffer, 100% aqueous solution, initial allicin (A-2) concentration 1500 ppm; mean (SD), n=3; read-out: Half-Life (hours) at 20° C.
recorded-endpoint: half-life (h)
Lab book: enter the figure in h, no units written.

Value lookup for half-life; key = C=CC[S+]([O-])SC=CC (stereo not shown)
77.2

* * *

# experiment-summary: Thiosulfinate half-life in aqueous ethanol garlic extract solutions by quantitative reverse phase HPLC
# Assay type: physicochemical
# condition-label: buffer, 75% EtOH, 30° C., initial allicin 400 ppm; mean (SD), n=3
# Experimental: The solutions were prepared from a single stock aqueous garlic extract solution that was diluted with the appropriate volume of ethanol to produce the 25%, 50% and 75% ethanol garlic aqueous extract solutions. […] The decomposition profiles of MeS(O)SAll and AllS(O)SMe (the MA-AM mixture collectively referred to as Analogue-1), AllS(O)SAll (Allicin, Analogue-2) and AllS(O)SPn-(E,Z) (Analogue-3) thiosulfinates were then determined by quantitative reverse phase HPLC. […]
recorded-endpoint: half-life (h)
Respond numerically; units are h and should not be typed.

Which half-life is listed for C=CC[S+]([O-])SC=CC (stereo not shown) ?
46.9

* * *

# experiment-summary: Thiosulfinate half-life in aqueous ethanol garlic extract solutions by quantitative reverse phase HPLC
# Format: physicochemical
# condition-label: buffer, 25% EtOH, 25° C., initial allicin 400 ppm; mean (SD), n=3
recorded-endpoint: half-life (days)
Could you give me the number in days? Just the number is fine.

Given C=CC[S+]([O-])SC=CC (stereo not shown) , state its recorded half-life.
2.75

* * *

# experiment-summary: Thiosulfinate half-life in aqueous ethanol garlic extract solutions by quantitative reverse phase HPLC
# Assay type: physicochemical
# condition-label: buffer, 75% EtOH, 40° C., initial allicin 400 ppm; mean (SD), n=3
recorded-endpoint: half-life (h)
Express your answer in h, writing the number without its unit.

For the compound C=CC[S+]([O-])SC=CC (stereo not shown) , what half-life is on record?
17.6

* * *

# experiment-summary: Thiosulfinate half-life in aqueous ethanol garlic extract solutions by quantitative reverse phase HPLC
# Type: physicochemical
# condition-label: buffer, 25% EtOH, 30° C., initial allicin 400 ppm; mean (SD), n=3
recorded-endpoint: half-life (h)
Give the quantity in h, number only.

Looking for the measured half-life of C=CC[S+]([O-])SC=CC (stereo not shown) , can you help?
39.5

Origin of values: patent US9707201B2
